Tested on: B16-F10 (mouse melanoma)
Test: MTS cell viability assay, B16-F10 cells
Assay type: cell-based
Conditions: 48 hours, individual drug, read-out: ED50 in B16-F10
Description: The 50% effective dose (or ED50) for 2-DG, MTX, and WGN (individually) against the cancer cell lines 4T1 (mouse breast cancer), MCF-7 (human breast cancer), THP-1 (human myelomonocytic cancer), and B16-F10 (mouse melanoma) was determined (Table 1). The cell lines were specifically chosen for their extremely aggressive nature. For example, the cell lines have evolved multiple mechanisms of resistance to cell death and are highly metastatic (e.g., equivalent to a stage 4 cancer model). […]
pEC50: −log10 of the molar value.
QUANTITY NAME: pEC50

(I) COc1c(O)cc(O)c2c(=O)cc(-c3ccccc3)oc12
(II) CN(Cc1cnc2nc(N)nc(N)c2n1)c1ccc(C(=O)N[C@@H](CCC(=O)O)C(=O)O)cc1 [MTG, Methotrexate]
Exercise: # return whichever of I and II has the smaller pEC50 Lab note: record the label of whichever item you select.
Solution: I
